- TEST_NAME: Lipophilicity, log D of the compound at pH 7.4
- Assay type: physicochemical
- SETUP_CONDITIONS: buffer
Would you mind telling me the reported logD of each entry?
No unit in the answer, only the number.

Task item: Quick one: logD of COc1ccc2c(n1)CCN(C(=O)C[C@H]1C[C@@H](C(=O)O)C1)[C@H]2C(=O)Nc1cc(F)c2c(c1)CCC2(C)C ?
Reply: 3.51

Task item: Data request, read-out logD, for COCC(C)(C)c1c(F)cc(NC(=O)[C@H]2c3ccc(OC)cc3CCN2C(=O)CCCC(=O)O)cc1F
Reply: 3.16

Task item: Fill blank: measured logD of the molecule COc1ccc2c(n1)CCN(C(=O)CCCC(=O)O)[C@H]2C(=O)Nc1cc(F)c2c(c1)CCC2(C)C is ____.
Reply: 3.39

Task item: What measured logD goes with COc1ccc2c(n1)CCN(C(=O)C[C@H]1C[C@H](C(=O)O)C1)[C@H]2C(=O)Nc1cc(F)c2c(c1)CCC2(C)C ?
Reply: 3.49

----------
- TEST_NAME: AUC (0 to 8 hrs) in mouse at 1 mg/kg, po administered via cassette dosing
- Format: ADME, organism-based
- Set-up: time < 8 hr, dose 1 mg/kg, route oral
- SETUP_CONDITIONS: in vivo
I'd be grateful if you could share measured AUC(0-t) at 8 h for these entries.
Supply the numeric figure in ng·h/mL, leaving out any unit text.

Task item: // AUC(0-t) at 8 h lookup, key: COc1ccc2c(c1)CCN(C(=O)CCCC(=O)O)[C@H]2C(=O)Nc1cc(F)c(C(C)(C)C)c(F)c1
Reply: 2840

Task item: Which AUC(0-t) at 8 h value is on record for COc1ccc2c(n1)CCN(C(=O)CCCC(=O)O)[C@H]2C(=O)Nc1cc(F)c([Si](C)(C)C)c(F)c1 ?
Reply: 2880

Task item: What measured AUC(0-t) at 8 h goes with COCC(C)(C)c1c(F)cc(NC(=O)[C@H]2c3ccc(OC)cc3CCN2C(=O)CCCC(=O)O)cc1F ?
Reply: 389

Task item: # query: AUC(0-t) at 8 h of entry COc1ccc2c(n1)CCN(C(=O)[C@H]1C[C@@H](CC(=O)O)C1)[C@H]2C(=O)Nc1cc(F)c2c(c1)CCC2(C)C
Reply: 10100

Task item: I'd like to know its AUC(0-t) at 8 h. The molecule in question is COc1ccc2c(n1)CCN(C(=O)CCCC(=O)O)[C@H]2C(=O)Nc1cc(F)c2c(c1)CCC2(C)C
Reply: 2620

Task item: Can you share its AUC(0-t) at 8 h? I mean this molecule: COc1ccc2c(c1)CCN(C(=O)CCCC(=O)O)[C@H]2C(=O)Nc1cc(F)c2c(c1)CCC2(C)C
Reply: 3440

Cited source: ChEMBL document CHEMBL4033797
